Tested on: MDA-MB-231 breast
testName: NCI-60 one-dose screen, 48 h (100 = growth as untreated, 0 = no growth, -100 = all killed)
measurementParameters: 10 µM unless noted
Protocol: Cells are grown in 96 well plates and exposed to the test compound for 48 hours. Compounds are tested at a single concentration, which is 10^-5 M for most compounds. The reported endpoint is percent growth (GI% or GIPRCNT), where numbers from 0 - 100% represent growth inhibition, and numbers from -100% - 0 represent cell death. For example, a value of 40 represents 60% growth inhibition. A value of 0 means no net growth occurred over the course of the experiment. […]
About 83,000 compounds went through this panel and 20% of them were active in at least one assay; those are over-represented in the sample as a whole.
Binarize growth at 80%; below is y, at or above is n.

Solved entries (count: 5):
1) O=C(Nc1cccc(-n2ccc3c(NC(=O)c4ccccc4)ncnc32)c1)Nc1ccc(Cl)c(C(F)(F)F)c1 = y
2) Cn1cnc([N+](=O)[O-])c1N1c2ccncc2Sc2ccncc21 = n
3) Nc1nc2ccc(CNc3ccc(C(=O)NC(CC(=O)O)C(=O)O)cc3)cc2c(=O)[nH]1 (stereo not given) = n
4) CC1(C)N=C(N)N=C(N)N1c1cccc(CCCCc2ccccc2)c1 = y
5) COc1cc(/C=C/C(=O)N2CCC=CC2=O)cc(OC)c1OC = y

// switching to the query compound
Find out if reported growth for CCN(CC)CC(=O)Nc1c(C)cccc1C is less than 80%
n

----------
Entries and their growth
Tested on: 786-0 renal
testName: NCI-60 one-dose screen, 48 h (100 = growth as untreated, 0 = no growth, -100 = all killed)
measurementParameters: 10 µM unless noted
The panel holds about 83,000 compounds, 20% with a hit somewhere; the sample as a whole holds those more often.
Express it in %; write the number only.

Before answering, review these 4 worked examples.
1) NS(=O)(=O)c1ccc(CCN2C(=O)/C(=C\c3ccc(Cl)cc3)C=C2c2ccc(Oc3ccccc3)cc2)cc1 = 91.1
2) COc1ccccc1NC(=O)COc1ccc(/C=C2/Oc3cc4occc4c(OC)c3C2=O)cc1OC = 96.1
3) CN1C(=O)C2(NN=C(c3cccc4ccccc34)S2)c2ccccc21 (stereo unspecified) = 33.5
4) COc1ccc(Cl)cc1NC(=O)c1cc2c(n1C)-c1nc(NC(=O)C(C)(C)C)sc1CC2 = 94.7

What measured growth goes with CCOC(=O)n1cnc2c(Cl)ncnc21 ?
159

Record request: growth value, item O=C(Nc1ccc(-n2ccc3c(NC(=O)c4ccccc4)ncnc32)cc1)Nc1cccc(Cl)c1Cl
6.42

Fill blank: measured growth of the compound CC(=O)n1cc(/C=C2\N=C(c3ccc(Cl)cc3)N(c3ccc(S(=O)(=O)Nc4nccs4)cc3)C2=O)c2ccccc21 is ____.
88.6

Please look up its growth: Cc1ccc(-c2nc3c(N=Nc4ccc(S(N)(=O)=O)cc4)c(N)nn3c(N)c2C#N)cc1
64.5

Tell me the measured growth of CCN(CC)CCN1C(=O)c2c(c3c4ccccc4[nH]c3c3[nH]c4ccccc4c23)C1=O , please.
83.6

----------
Tested on: SR leukemia
testName: NCI-60 one-dose screen, 48 h
measurementParameters: 10 µM unless noted
The panel holds about 83,000 compounds, 20% with a hit somewhere; the sample as a whole holds those more often. Calls of active or inactive are those of the source. Rule for the calls: active = growth percent below 10; inactive = the rest.
Pick from True = active, False = inactive when you respond.

Examples from the recorded data:
1. Cc1[nH]n(C(=O)c2ccncc2)c(=O)c1N=Nc1ccc(S(=O)(=O)Nc2ccncn2)cc1 = False
2. NC(CCCC(N)C(=O)c1ccccc1)C(=O)O (centres undefined) = False
3. CC(=O)Nc1ccc(OC(=O)c2ccccc2O)cc1 = False
4. C#C[C@@]1(O)[C@@H](CO)O[C@@H](n2cc(Br)c3c(Cl)ccnc32)[C@@H]1O = False
5. Cc1cccc(NCS(=O)(=O)O)c1 = False
6. Cc1ccc(NC(=O)CN2CCOCC2)cc1Cl = False
7. S=c1[nH]nc(Cn2c3ccccc3c3ccncc32)o1 = False
8. O=C(Nc1ccc(-n2cc(-c3ccncc3)c(-c3ccc(O)c(Cl)c3)n2)cc1)Nc1ccc(Cl)c(C(F)(F)F)c1 = True

Now for another entry.
What did the test return for CCCCCCCCCCCC(=O)OCCNC(=O)C[n+]1ccccc1 ?
False

----------
Test system: RPMI-8226 leukemia
testName: NCI-60 one-dose screen, 48 h (100 = growth as untreated, 0 = no growth, -100 = all killed)
measurementParameters: 10 µM unless noted
The panel holds about 83,000 compounds, 20% with a hit somewhere; the sample as a whole holds those more often.
Outcome: 1 for growth of at least 40%; 0 for anything lower.

Study these solved cases before continuing.
1. COc1cc(-c2nc3ccccc3s2)ccc1OCc1nc2n(n1)S(=O)(=O)c1ccccc1N2C = 1
2. Cc1cn(-c2cc(C(=O)Nc3cccc(-n4ccc5c(NC(=O)c6ccccc6)nccc54)c3)cc(C(F)(F)F)c2)cn1 = 0
3. O=C1c2ccccc2OC=C(c2ccccc2)N1CCCCNc1ccc(F)cc1 = 1
4. Cc1ccccc1C[P+](c1ccccc1)(c1ccccc1)c1ccccc1 = 0

Tell me whether growth is at least 40% here: COc1ccc(-c2nn(-c3ccc(NC(=O)Nc4ccc(Cl)c(C(F)(F)F)c4)cc3)cc2-c2ccncc2)cc1Cl
0

// inclusive: growth at least 40%? input: COc1ccc(OCC(O)CN2CCN(c3ccc(Cl)cc3)CC2)cc1 (stereo not given)
1

Exam item: decide whether the reported growth for COC(=O)Nc1nc2ccc(Sc3ccccc3)cc2[nH]1 is at least 40%.
1

Check this compound for growth at or above 40%: COc1ccc(-c2nnc(NC(=O)CN3CCN(c4cc5c(cc4F)c(=O)c(C(=O)O)cn5C4CC4)CC3)s2)cc1OC
1

Reported growth at or above 40%? CS(=O)(=O)Nc1cccc(-c2ccc3ncnc(Nc4ccc(F)c(Cl)c4)c3c2)c1
0

Threshold query (growth >= 40%) on CN(C)CCCOc1c(Br)cc(/C=C/C(=O)N(C)CCc2cc(Br)c(OCCCN(C)C)c(Br)c2)cc1Br
0

State whether the measured growth reaches 40%, counting equality as reaching it, for CCN(CC)CCNC(=O)c1c(C)[nH]c(/C=C2\C(=O)Nc3cc(NC(=O)NC(=O)c4ccc(OC)cc4F)ccc32)c1C
1

Determine whether measured growth meets or exceeds 40% for Cc1ccc(/C=C2/C(=O)Nc3cc(Cl)c(-c4csc(N)n4)cc32)cc1
1

Please indicate if the recorded growth for CC(C)Cn1cnc2c3ccccc3nc(NCn3nc(-c4cc(Cl)cc(Cl)c4Cl)oc3=S)c21 meets or exceeds 40%.
1

growth >= 40% for COc1ccccc1C(OC(C)=O)OC(C)=O ?
1

I'd appreciate it if you could say whether CS(=O)(=O)Nc1cccc(-c2ccc3ncnc(Nc4cncc(Cl)c4)c3c2)c1 has growth at least equal to 40%.
0

Check if growth >= 40% (inclusive). Item: Cc1nssc1=S
1

Hi, just wondering whether c1cncc(-c2nc3ccccc3[nH]2)c1 shows growth of 40% or higher.
1

# bool: growth of O=C(Nc1ccc(-n2cc(-c3ccncc3)c(-c3ccc(O)c(Cl)c3)n2)cc1)Nc1cc(C(F)(F)F)cc(C(F)(F)F)c1 >= 40%
1

Hello, I need to know if Cc1ccc(=O)n(-c2ccc(Br)cc2F)c1 has measured growth not below 40%. Thanks!
1

Form field: growth at least 40%? Entry: COc1ccc(-c2nn(-c3cccc(Cl)c3)cc2-c2cc(-c3ccc(Br)cc3)[nH]c(=O)c2C#N)cc1
1

----------
System: NCI-H522 lung
testName: NCI-60 one-dose screen, 48 h (100 = growth as untreated, 0 = no growth, -100 = all killed)
measurementParameters: 10 µM unless noted
About 83,000 compounds went through this panel and 20% of them were active in at least one assay; those are over-represented in the sample as a whole.
Please assign a class to every record based on measured growth, with ranges low range = under 50%, mid range = from 50% up to 80%, high range = 80% and over

Illustrative cases are given below, each with its answer.
1) c1ccc(CNCCN(CCNCc2ccccn2)Cc2ccc3ccccc3c2)nc1 = low range
2) NN=C(c1ccc(Cl)cc1)c1ccc(Cl)cc1 = high range

Tag the class for O=C(NOC1OC(CO)C(O)C(O)C1O)Nc1ccccc1 (stereo not given)
high range

Which category does the recorded growth put CCCC(=O)Oc1ccc(/C(=C(\C)c2ccc(Cl)cc2)c2ccc(OCCN(CC)CC)cc2)cc1 in?
low range

Each compound maps to one class by growth. Which class for Cn1cnc([N+](=O)[O-])c1N1c2ccncc2Sc2ccncc21 ?
mid range

Assign a category based on measured growth for Cc1ccc(=O)n(-c2ccc(Br)cc2F)c1 and give only the class name.
high range

# bin label for O=c1c2ccccc2sc2c(NCCCNCCO)nc3ccccc3c12
low range

In plain terms, what class is C=CCn1c(SCC(=O)Nc2ccc(C(=O)/C=C/c3cc(OC)c(OC)c(OC)c3)cc2)nnc1-c1ccc(OC)cc1 ?
low range

Bin this entry: COc1cc(-c2nc3ccccc3s2)ccc1OCc1nc2n(n1)S(=O)(=O)c1ccccc1N2c1ccccc1
high range

Class for CCOc1ccc(NC(=O)Nc2cc(C(C)C)ccc2C)cc1 ?
low range

Which bin, given its growth, does NS(=O)(=O)c1ccc(CCN2C(=O)/C(=C\c3ccc(Cl)cc3)C=C2c2ccc(Oc3ccccc3)cc2)cc1 occupy?
mid range

Just for reference, PubChem BioAssay (NCI) is where these values come from.
